Origin of measurements: patent US12187816B2

# Assayed system: BRD4 (Homo sapiens, UniProt O60885)
# Construct: Mean 488 intensity of BRD4 quantitated in nuclear region; endogenous in cells; host or cells: EoL-1 eosinophilic leukemia cells
# Assay overview: BRD4 degradation assay in EOL1 cells (immunofluorescence imaging)
# Format: cell-based
# Test settings: EoL-1 eosinophilic leukemia cells, 4 hours treatment, nuclear BRD4 immunofluorescence
Positions of bridges follow the written chain, without caps; N, C: chain ends. Non-standard residues stand in square brackets, D forms with d. Residues, ends and D or L forms follow the SMILES beside them. *: point of attachment. X11 = CC(=O)N1c2ccc(-c3ccc(C(=O)*)cc3)cc2[C@H](Nc2ccc(Cl)cc2)C[C@@H]1C; JQ1acid = Cc1sc2c(c1C)C(c1ccc(Cl)cc1)=N[C@@H](CC(=O)*)c1nnc(C)n1-2; dPhg(4-(4-Me-thiazol-5-yl)) = Cc1ncsc1-c1ccc([C@@H](N)C(=O)O)cc1; Hyp = O=C(O)[C@@H]1C[C@@H](O)CN1; Tle = CC(C)(C)[C@H](N)C(=O)O; dDap = NC[C@@H](N)C(=O)O; PEG1 = NCCOCCC(=O)O
The reader will find reported DC50 values listed item by item below.
Property measured: DC50

[
  {
    "Compound": "Cc1ncsc1-c1ccc([C@H]2NC(=O)[C@@H]3C[C@@H](O)CN3C(=O)[C@H](C(C)(C)C)NC(=O)CCOCCNC(=O)[C@@H](CNC(=O)C[C@@H]3N=C(c4ccc(Cl)cc4)c4c(sc(C)c4C)-n4c(C)nnc43)NC(=O)CNC2=O)cc1 [Compound 32] (cyclo(G[dDap](JQ1acid)[PEG1][Tle][Hyp][dPhg(4-(4-Me-thiazol-5-yl))]))",
    "Assayed system": "BRD4 (Homo sapiens, UniProt O60885)",
    "Property measured": "DC50",
    "Value reported": "> 20 µM"
  },
  {
    "Compound": "CC(=O)N1c2ccc(-c3ccc(C(=O)NC[C@H]4NC(=O)CNC(=O)[C@@H](c5ccc(-c6scnc6C)cc5)NC(=O)[C@@H]5C[C@@H](O)CN5C(=O)[C@H](C(C)(C)C)NC(=O)CSC[C@H](C(N)=O)NC4=O)cc3)cc2[C@H](Nc2ccc(Cl)cc2)C[C@@H]1C [Compound 21] ({CH2CO}-[Tle][Hyp][dPhg(4-(4-Me-thiazol-5-yl))]G[dDap](X11)[dC]-NH2; thioether N-6)",
    "Assayed system": "BRD4 (Homo sapiens, UniProt O60885)",
    "Property measured": "DC50",
    "Value reported": "> 20 µM"
  }
]

----------
# DC50 values compiled below
# Assayed system: BRD4 (Homo sapiens)
# Construct: Mean 488 intensity of BRD4 quantitated in nuclear region; endogenous in cells; host or cells: EoL-1 eosinophilic leukemia cells
# Assay overview: BRD4 degradation assay in EOL1 cells (immunofluorescence imaging)
# Type: cell-based
# Test settings: EoL-1 eosinophilic leukemia cells, 4 hours treatment, nuclear BRD4 immunofluorescence
Positions of bridges follow the written chain, without caps; N, C: chain ends. Non-standard residues stand in square brackets, D forms with d. Residues, ends and D or L forms follow the SMILES beside them. *: point of attachment. JQ1acid = Cc1sc2c(c1C)C(c1ccc(Cl)cc1)=N[C@@H](CC(=O)*)c1nnc(C)n1-2; dPhg(4-(4-Me-thiazol-5-yl)) = Cc1ncsc1-c1ccc([C@@H](N)C(=O)O)cc1; Phg(4-(4-Me-thiazol-5-yl)) = Cc1ncsc1-c1ccc([C@H](N)C(=O)O)cc1; Hyp = O=C(O)[C@@H]1C[C@@H](O)CN1; Tle = CC(C)(C)[C@H](N)C(=O)O; dDap = NC[C@@H](N)C(=O)O; Dap = NC[C@H](N)C(=O)O

[
  {
    "Compound": "Cc1ncsc1-c1ccc([C@@H]2NC(=O)[C@@H]3C[C@@H](O)CN3C(=O)[C@H](C(C)(C)C)NC(=O)CSC[C@H](C(N)=O)NC(=O)[C@H](CNC(=O)C[C@@H]3N=C(c4ccc(Cl)cc4)c4c(sc(C)c4C)-n4c(C)nnc43)NC(=O)CNC2=O)cc1 [Compound 14] ({CH2CO}-[Tle][Hyp][Phg(4-(4-Me-thiazol-5-yl))]G[Dap](JQ1acid)[dC]-NH2; thioether N-6)",
    "Assayed system": "BRD4 (Homo sapiens)",
    "DC50": "> 20000 nM"
  },
  {
    "Compound": "Cc1sc2c(c1C)C(c1ccc(Cl)cc1)=N[C@@H](CC(=O)NC[C@H]1CCCNC(=O)[C@@H](Cc3ccc(-c4ccccc4)cc3)NC(=O)[C@@H]3C[C@@H](O)CN3C(=O)[C@H](C(C)(C)C)n3cc(nn3)COCCNC1=O)c1nnc(C)n1-2",
    "Assayed system": "BRD4 (Homo sapiens)",
    "DC50": "< 50 nM"
  },
  {
    "Compound": "Cc1ncsc1-c1ccc([C@H]2NC(=O)[C@@H]3C[C@@H](O)CN3C(=O)[C@H](C(C)(C)C)NC(=O)CSC[C@H](C(N)=O)NC(=O)[C@@H](CNC(=O)C[C@@H]3N=C(c4ccc(Cl)cc4)c4c(sc(C)c4C)-n4c(C)nnc43)NC(=O)CNC2=O)cc1 [Compound 1] ({CH2CO}-[Tle][Hyp][dPhg(4-(4-Me-thiazol-5-yl))]G[dDap](JQ1acid)[dC]-NH2; thioether N-6)",
    "Assayed system": "BRD4 (Homo sapiens)",
    "DC50": "< 1000 nM"
  }
]

----------
# Assayed system: BRD4 (Homo sapiens)
# Construct: Mean 488 intensity of BRD4 quantitated in nuclear region; endogenous in cells; host or cells: EoL-1 eosinophilic leukemia cells
# Assay overview: BRD4 degradation assay in EOL1 cells (immunofluorescence imaging)
# Assay type: cell-based
# Test settings: EoL-1 eosinophilic leukemia cells, 4 hours treatment, nuclear BRD4 immunofluorescence
Positions of bridges follow the written chain, without caps; N, C: chain ends. Non-standard residues stand in square brackets, D forms with d. Residues, ends and D or L forms follow the SMILES beside them. *: point of attachment. JQ1acid = Cc1sc2c(c1C)C(c1ccc(Cl)cc1)=N[C@@H](CC(=O)*)c1nnc(C)n1-2; Phg(4-(4-Me-thiazol-5-yl)) = Cc1ncsc1-c1ccc([C@H](N)C(=O)O)cc1; dBip = N[C@H](Cc1ccc(-c2ccccc2)cc1)C(=O)O; Hyp = O=C(O)[C@@H]1C[C@@H](O)CN1; Tle = CC(C)(C)[C@H](N)C(=O)O; dDap = NC[C@@H](N)C(=O)O; AEA = NCCOCC(=O)O; GABA = NCCCC(=O)O
Each item that follows carries a reported DC50.

[
  {
    "Compound": "Cc1sc2c(c1C)C(c1ccc(Cl)cc1)=N[C@@H](CC(=O)NC[C@H]1NC(=O)[C@@H](C)NC(=O)[C@@H](Cc3ccc(-c4ccccc4)cc3)NC(=O)[C@@H]3C[C@@H](O)CN3C(=O)[C@H](C(C)(C)C)NC(=O)CCCNC1=O)c1nnc(C)n1-2 [Compound 59] (cyclo([GABA][Tle][Hyp][dBip][dA][dDap](JQ1acid)))",
    "DC50": "< 1 µM"
  },
  {
    "Compound": "Cc1ncsc1-c1ccc([C@@H]2NC(=O)[C@@H]3C[C@@H](O)CN3C(=O)[C@H](C(C)(C)C)NC(=O)COCCNC(=O)[C@@H](CNC(=O)C[C@@H]3N=C(c4ccc(Cl)cc4)c4c(sc(C)c4C)-n4c(C)nnc43)NC(=O)[C@H](C)NC2=O)cc1 [Compound 35] (cyclo(A[dDap](JQ1acid)[AEA][Tle][Hyp][Phg(4-(4-Me-thiazol-5-yl))]))",
    "DC50": "> 20 µM"
  },
  {
    "Compound": "Cc1ncsc1-c1ccc([C@@H]2NC(=O)[C@@H]3C[C@@H](O)CN3C(=O)[C@H](C(C)(C)C)NC(=O)CSC[C@H](C(N)=O)NC(=O)[C@@H](CNC(=O)C[C@@H]3N=C(c4ccc(Cl)cc4)c4c(sc(C)c4C)-n4c(C)nnc43)NC(=O)CNC2=O)cc1 [Compound 2] ({CH2CO}-[Tle][Hyp][Phg(4-(4-Me-thiazol-5-yl))]G[dDap](JQ1acid)[dC]-NH2; thioether N-6)",
    "DC50": "> 20 µM"
  }
]

----------
# Assayed system: BRD4 (Homo sapiens, UniProt O60885)
# Construct: Mean 488 intensity of BRD4 quantitated in nuclear region; endogenous in cells; host or cells: EoL-1 eosinophilic leukemia cells
# Assay overview: BRD4 degradation assay in EOL1 cells (immunofluorescence imaging)
# Assay type: cell-based
# Test settings: EoL-1 eosinophilic leukemia cells, 4 hours treatment, nuclear BRD4 immunofluorescence
Positions of bridges follow the written chain, without caps; N, C: chain ends. Non-standard residues stand in square brackets, D forms with d. Residues, ends and D or L forms follow the SMILES beside them. *: point of attachment. X14 = Cn1cc2c3c(c[nH]c3c1=O)CN(c1ncc(F)cc1F)c1cc(C(=O)*)c(CS(C)(=O)=O)cc1-2; JQ1acid = Cc1sc2c(c1C)C(c1ccc(Cl)cc1)=N[C@@H](CC(=O)*)c1nnc(C)n1-2; dPhg(4-(4-Me-thiazol-5-yl)) = Cc1ncsc1-c1ccc([C@@H](N)C(=O)O)cc1; Hyp = O=C(O)[C@@H]1C[C@@H](O)CN1; Tle = CC(C)(C)[C@H](N)C(=O)O; dDap = NC[C@@H](N)C(=O)O; AEA = NCCOCC(=O)O
This listing pairs molecules with measured DC50.
Property measured: DC50

[
  {
    "Molecule": "Cc1ncsc1-c1ccc([C@H]2NC(=O)[C@@H]3C[C@@H](O)CN3C(=O)[C@H](C(C)(C)C)NC(=O)CSC[C@H](C(N)=O)NC(=O)[C@@H](CNC(=O)c3cc4c(cc3CS(C)(=O)=O)-c3cn(C)c(=O)c5[nH]cc(c35)CN4c3ncc(F)cc3F)NC(=O)CNC2=O)cc1 [Compound 22] ({CH2CO}-[Tle][Hyp][dPhg(4-(4-Me-thiazol-5-yl))]G[dDap](X14)[dC]-NH2; thioether N-6)",
    "Value reported": "> 20 µM"
  },
  {
    "Molecule": "Cc1ncsc1-c1ccc([C@H]2NC(=O)[C@@H]3C[C@@H](O)CN3C(=O)[C@H](C(C)(C)C)NC(=O)COCCNC(=O)[C@@H](CNC(=O)C[C@@H]3N=C(c4ccc(Cl)cc4)c4c(sc(C)c4C)-n4c(C)nnc43)NC(=O)CNC2=O)cc1 [Compound 16] (cyclo([AEA][Tle][Hyp][dPhg(4-(4-Me-thiazol-5-yl))]G[dDap](JQ1acid)))",
    "Value reported": "< 1 µM"
  },
  {
    "Molecule": "Cc1ncsc1-c1ccc([C@H]2NC(=O)[C@@H]3C[C@@H](O)CN3C(=O)[C@H](C(C)(C)C)NC(=O)CSC[C@H](C(N)=O)NC(=O)[C@@H](NC(=O)C[C@@H]3N=C(c4ccc(Cl)cc4)c4c(sc(C)c4C)-n4c(C)nnc43)NC(=O)CNC2=O)cc1",
    "Value reported": "> 20 µM"
  }
]
